Target: Estrogen receptor (Homo sapiens, UniProt P03372)
Sequence (P03372 whole entry): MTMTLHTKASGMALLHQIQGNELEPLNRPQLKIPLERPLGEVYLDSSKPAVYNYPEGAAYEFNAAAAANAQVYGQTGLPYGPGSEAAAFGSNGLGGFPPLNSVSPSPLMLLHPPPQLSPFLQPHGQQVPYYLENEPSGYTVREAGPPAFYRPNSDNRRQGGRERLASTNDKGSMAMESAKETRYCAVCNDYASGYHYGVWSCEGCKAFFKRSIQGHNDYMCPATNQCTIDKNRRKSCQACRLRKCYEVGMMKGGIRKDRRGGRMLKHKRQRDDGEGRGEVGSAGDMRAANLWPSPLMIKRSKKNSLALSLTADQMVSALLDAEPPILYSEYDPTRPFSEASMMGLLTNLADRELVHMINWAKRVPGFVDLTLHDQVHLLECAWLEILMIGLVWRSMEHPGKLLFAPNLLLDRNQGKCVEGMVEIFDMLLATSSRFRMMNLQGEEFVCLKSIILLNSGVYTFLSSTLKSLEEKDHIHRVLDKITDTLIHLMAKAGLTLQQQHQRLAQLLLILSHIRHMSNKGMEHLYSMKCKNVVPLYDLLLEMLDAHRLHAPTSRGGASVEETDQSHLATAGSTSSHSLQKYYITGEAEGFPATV
assay readout: IC50 (nM)
Field format: number, assumed nM, no unit text.

Fill in the blank: the reported IC50 of CC1Cc2c(oc3c(F)cccc23)C(c2c(F)cc(/C=C/C(=O)O)cc2F)N1CC(C)(C)F (centres undefined) is ____.
2.97

And the next one, CC1Cc2c(oc3ccccc23)C(c2c(F)cc(/C=C/C(=O)O)cc2F)N1CC(C)(C)F (centres undefined) ?
0.73

And the next one, CCn1cc(-c2ccc3oc4c(c3c2)CC(C)N(CC(C)(C)F)C4c2c(F)cc(/C=C/C(=O)O)cc2F)cn1 (centres undefined) ?
1.39

And the next one, CC(C)CN1C(C)Cc2c(ccc3[nH]ncc23)C1c1c(F)cc(/C=C/C(=O)O)cc1F (centres undefined) ?
0.43
